Where do these numbers come from? They come from patent EP1137645B1.

Each item that follows carries a reported IC50.
Tested on: VZV strain Ellen
Test: VZV antiviral (ELISA) assay
Assay type: cell-based
Conditions: Human alphaherpesvirus 3, HFF, read-out: IC50 (ug/ml) VZV, VZV strain Ellen, HFF cells, ELISA
readoutName: IC50

| compound | result |
| --- | --- |
| O=C(Nc1ccc(NC(=S)NCc2ccc(N3CCCCC3)c(C(F)(F)F)c2)cc1)c1ccccc1F [Example 616] | > 10 µg/mL |
| CC(C)CN(C)c1cc(NC(=S)Nc2ccc(NC(=O)c3ccccc3F)cc2)cc(C(F)(F)F)c1 [Example 596] | > 10 µg/mL |
| CC(NC(=S)Nc1ccc(NC(=O)c2ccccc2F)cc1)c1ccc(S(=O)(=O)N(C)C)cc1 (centres unmarked) [Example 1008] | > 10 µg/mL |
| O=C(Nc1ccc(NC(=S)Nc2cc(N3CCCCC3)cc(C(F)(F)F)c2)cc1)c1ccccc1F [Example 570] | > 10 µg/mL |
| O=C(Nc1ccc(NC(=S)NC(Cc2ccccc2)c2ccc(F)cc2)cc1)c1ccccc1F (centres unmarked) [Example 774] | > 7.5 µg/mL |
| COc1ccc(C(C)NC(=S)Nc2ccc(NC(=O)c3ccccc3F)cc2)cc1 (centres unmarked) [Example 777] | > 7.5 µg/mL |
| COc1ccccc1C(C)NC(=S)Nc1ccc(NC(=O)c2ccccc2F)cc1 (centres unmarked) [Example 788] | > 7.5 µg/mL |
| COc1cc(OC)c(NC(=S)Nc2ccc(NC(=O)c3ccccc3C(=O)O)cc2)cc1Cl [Example 184] | > 10 µg/mL |

---

System: HCMV recombinant mutant virus whose genome contains the prokaryotic beta-glucuronidase gene
Test: microbe, parasite or virus in culture
Assay type: cell-based, human cytomegalovirus
Conditions: Human betaherpesvirus 5, Fibroblast, read-out: IC50 ug/ml HCMV, HCMV, human foreskin fibroblasts

| molecule | IC50 |
| --- | --- |
| CC(NC(=S)Nc1ccc(NC(=O)c2cnc3ccccc3c2)cc1)c1ccc(F)cc1 (centres unmarked) [Example 988] | > 10 µg/mL |
| COc1cc(OC)c(NC(=S)Nc2ccc(NC(=O)c3ccc(F)cc3F)cc2)cc1Cl [Example 188] | > 10 µg/mL |
| COc1ccc(C(=O)Nc2ccc(NC(=S)Nc3cc(Br)c(OC)cc3OC)cc2)cc1 [Example 830] | > 10 µg/mL |
| O=C(Nc1ccc(NC(=S)NCCSc2ccccc2)cc1)c1ccccc1F [Example 656] | > 0.5 µg/mL |
| CC(NC(=S)Nc1ccc(NC(=O)c2ccccc2Cl)cc1)c1ccc(F)cc1 (centres unmarked) [Example 755] | > 10 µg/mL |
| Cc1ccccc1C(=O)Nc1ccc(NC(=S)Nc2ccc(N(C)C3CCCCC3)c(Cl)c2)cc1 [Example 247] | > 10 µg/mL |
| COc1cc(OC)c(NC(=S)Nc2ccc(NC(=O)c3cccc(OCC(=O)O)c3)cc2)cc1Cl [Example 222] | > 50 µg/mL |
| COc1cccc(C(C)NC(=S)Nc2ccc(NC(=O)c3ccccc3F)cc2)c1 (centres unmarked) [Example 789] | > 2.2 µg/mL |
| COCCOc1ccc(NC(=S)Nc2ccc(NC(=O)c3ccccc3F)cc2)cc1Cl [Example 996] | > 10 µg/mL |
| COc1cc(OC)c(NC(=S)Nc2ccc(NC(=O)c3cccc(C(=O)O)c3)cc2)cc1Cl [Example 209] | > 50 µg/mL |
| COc1cc(OC)c(NC(=S)Nc2ccc(NC(=O)c3ccccc3[S+](C)[O-])cc2)cc1Cl (centres unmarked) [Example 220] | > 10 µg/mL |
| COc1ccccc1C(=O)Nc1ccc(NC(=S)NC(C)c2cc3ccccc3o2)cc1 (centres unmarked) [Example 1018] | > 10 µg/mL |
| COc1cc(OC)c(NC(=S)Nc2ccc(NC(=O)c3ccccc3F)c(C(=O)c3ccccc3)c2)cc1Cl [Example 293] | > 10 µg/mL |
| CC(NC(=S)Nc1ccc(NC(=O)c2cc3ccccc3o2)cc1)c1ccc(F)cc1 (centres unmarked) [Example 980] | > 10 µg/mL |

---

System: HCMV recombinant mutant virus whose genome contains the prokaryotic beta-glucuronidase gene
Test: microbe, parasite or virus in culture
Format: cell-based, human cytomegalovirus
Conditions: Human betaherpesvirus 5, Fibroblast, read-out: IC50 ug/ml HCMV, HCMV, human foreskin fibroblasts
Reported IC50 is given for each of the following molecules.

| molecule | IC50 |
| --- | --- |
| CN(c1ccc(NC(=S)Nc2ccc(NC(=O)c3ccccc3F)cc2)cc1Cl)C1CCCCC1 | > 10 µg/mL |
| O=C(Nc1ccc(NC(=S)Nc2ccc(OC(F)(F)F)c(Br)c2)cc1)c1ccccc1F | > 10 µg/mL |
| CCCCSc1ccc(NC(=S)Nc2ccc(NC(=O)c3ccccc3F)cc2)cc1Cl | > 10 µg/mL |
| COc1ccccc1C(=O)Nc1ccc(NC(=S)NC(C)c2ccc(F)cc2)cc1 (stereo not drawn) | > 0.5 µg/mL |
| O=C(Nc1ccc(NC(=S)Nc2cc(Cl)cc(Cl)c2)cc1)c1ccccc1F | > 10 µg/mL |
| O=C(Nc1ccc(NC(=S)Nc2ccc(Cl)c(C(F)(F)F)c2)cc1)c1ccccc1F | > 10 µg/mL |

---

System: HCMV recombinant mutant virus whose genome contains the prokaryotic beta-glucuronidase gene
Test: microbe, parasite or virus in culture
Assay type: cell-based, human cytomegalovirus
Details: Human betaherpesvirus 5, Fibroblast, read-out: IC50 ug/ml HCMV, HCMV, human foreskin fibroblasts
// reported log10(IC50) per item
readoutName: log10(IC50) (log10 of the value in µg/mL)

| compound | log10(IC50) |
| --- | --- |
| COc1cc(OC)c(NC(=S)Nc2ccc(NC(=O)c3cccc(F)c3)cc2)cc1Cl | 0.48 |
| COc1cc(OC)c(NC(=S)Nc2ccc(NC(=O)c3ccccc3C)cc2)cc1Br | 1.00 |
| CC1CCCCN1CC(=O)Nc1ccc(NC(=S)Nc2ccc(NC(=O)c3ccccc3F)cc2)cc1Cl (stereo not shown) | -0.30 |
| COc1cccc(C(=O)Nc2ccc(NC(=S)Nc3cc(Cl)c(OC)c(Cl)c3)cc2)c1 | -0.40 |
| C[C@H](NC(=S)Nc1ccc(NC(=O)c2ccccc2F)cc1)c1ccc(Cl)cc1 | 0.40 |

---

// reported IC50 per item
Test system: VZV strain Ellen
Experiment: VZV antiviral (ELISA) assay
Assay type: cell-based
Conditions: Human alphaherpesvirus 3; VZV strain Ellen, HFF cells, ELISA; read-out: IC50 (ug/ml) VZV
readoutName: IC50 (µg/mL)

| molecule | unitsLabel | censoringQualifier | quantitativeReadout |
| --- | --- | --- | --- |
| O=C(O)c1cccc(NC(=S)Nc2ccc(NC(=O)c3ccco3)cc2)c1 | µg/mL | > | 10 |
| Nc1cccc(NC(=S)Nc2ccc(NC(=O)c3ccccc3F)cc2)c1 | µg/mL | > | 10 |
| O=C(Nc1ccc(NC(=S)Nc2cccc(F)c2)cc1)c1ccccc1F | µg/mL | > | 10 |
| CC(NC(=S)Nc1ccc(NC(=O)c2ccccc2F)cc1)c1cccc(C#N)c1 (stereo not shown) | µg/mL | = | 7 |
| C[C@H](NC(=S)Nc1ccc(NC(=O)c2nccc3ccccc23)cc1)c1ccc(Cl)cc1 | µg/mL | = | 0.03 |
| Cc1ccc(NC(=S)Nc2ccc(NC(=O)c3ccccc3F)cc2)cc1C(F)(F)F | µg/mL | > | 10 |
| CC(=O)Nc1cccc(NC(=S)Nc2ccc(NC(=O)c3ccccc3F)cc2)c1 | µg/mL | > | 10 |
| NNC(=O)c1cccc(NC(=S)Nc2ccc(NC(=O)c3ccccc3F)cc2)c1 | µg/mL | > | 10 |
| CC(NC(=S)Nc1ccc(NC(=O)c2ccccc2F)cc1)c1ccccc1 (stereo not shown) | µg/mL | = | 0.36 |
| Nc1ccc(C(F)(F)F)cc1NC(=S)Nc1ccc(NC(=O)c2ccccc2F)cc1 | µg/mL | = | 9.4 |

---

Tested on: HCMV recombinant mutant virus whose genome contains the prokaryotic beta-glucuronidase gene
Test: microbe, parasite or virus in culture
Type: cell-based, human cytomegalovirus
Details: Human betaherpesvirus 5, Fibroblast, read-out: IC50 ug/ml HCMV, HCMV, human foreskin fibroblasts
readoutName: log10 IC50 (log10 of the value in µg/mL)

| compound | log10 IC50 |
| --- | --- |
| CC(NC(=S)Nc1ccc(NC(=O)c2ccccc2F)cc1)c1ccc(Cl)cc1 (stereo not shown) | 0.26 |
| COc1c(Cl)cc(NC(=S)Nc2ccc(NC(=O)c3ccccc3F)cc2)cc1Cl | -0.70 |
| Nc1cc(Cl)cc(NC(=S)Nc2ccc(NC(=O)c3ccccc3F)cc2)c1 | 0.30 |
| COc1cc(OC)c(NC(=S)Nc2ccc(NC(=O)c3ccccc3C(F)(F)F)cc2)cc1Cl | 0.90 |
| COc1cc(OC)c(NC(=S)Nc2ccc(NC(=O)c3cccc(N(C)C)c3)cc2)cc1Cl | 1.00 |
| COc1cc(OC)c(NC(=S)Nc2ccc(NC(=O)c3ccc(F)cc3)cc2)cc1Cl | 0.48 |
| CC(N=[N+]=[N-])c1ccc(NC(=S)Nc2ccc(NC(=O)c3ccccc3F)cc2)cc1Cl (stereo not shown) | 0.30 |
| CC(NC(=S)Nc1ccc(NC(=O)c2cc3ccccc3cn2)cc1)c1ccc(Br)cc1 (stereo not shown) | 0.18 |
| C[C@H](NC(=S)Nc1ccc(NC(=O)c2cc3ccccc3cn2)cc1)c1ccc(Br)cc1 | 0.36 |
